# Tested on: MS2 coat protein
# Assay Info: apparent KD of MS2 coat protein; higher = weaker reporter binding
# Experimental Context: Eterna round: R107; input ligand: theophylline 2 mM
Label label 1 when apparent KD of MS2 coat protein >= 30 nM; otherwise label 0.

{"Sequence Code": "ACAUGAGGAUCACCCAUGUUGCUGACAGAAGGAGCGUGAUUAAGCACAGGUAGGUCGCUGUUGGUAUCGAGCGUUAGCUCGAUAC [SSArg A #8]", "Category": "label 1"}
{"Sequence Code": "UAAACUACACAUGAGGAUCACCCAUGUGGCCGAGGACCGGUACGGCCGCCACUCGUGUGUUAAUAAAAGAACCGCAAAGUUCUUU [Raesonisso]", "Category": "label 1"}
{"Sequence Code": "AAUUAUCACGGAAGGAGCGUCAUGAAAUUGAUACAUGAGGAUCACCCAUGUGAGUGUUAGAGACAGGUAGGUCGCCGAUUAUUGA [JR_AAArginiB_Sub028]", "Category": "label 1"}
{"Sequence Code": "AACAUACAAUAAAAGGUGGAAAUAAGGCGGCGAGGACCGGUACGGCCGCCACUCGCGUACAUGAGGAUCACCCAUGUCUGAAACU [Same State - Tryptophan A (Freestyle 2)]", "Category": "label 0"}
{"Sequence Code": "GUUAGUUACACGGCCGCCACUCUUUGGCUUGGCUCAAGCUCCCAACAUGAGGAUCACCCAUGUCAGAGGACCGGGUGAACAACGU [theeternabot_sameState_MS2_Trp_B_28]", "Category": "label 1"}
{"Sequence Code": "CCGUCCCUCGGAAGGAGCGGCGCAAUGUAAGGGACCUUUUAUACAUGAGGAUCACCCAUGUGCCAGGUAGGUCGCCGAGAGCGUG [Erxeatge]", "Category": "label 1"}
{"Sequence Code": "CGGUCGGUCGGUCGGUGAGUAUGGGAUGAAGGAGCGUGGGAAGCUACAGGUAGGUCGCAUCCGGGACAUGAGGAUCACCCAUGUU [#19 Same State - Arginine A]", "Category": "label 1"}
{"Sequence Code": "UAUGAGCGCACGGCCGCCACUGUCUUCAUCUGUUUGUCUACAUGAGGAUCACCCAUGUUGGUUUACAGGACCGGGUGCAACUAUG [SSTryp B #10]", "Category": "label 1"}
{"Sequence Code": "UAAUCGUAGGCGGCCGCCACUUUUUGGUAGUGUCCAUUGUACACUCACAUGAGGAUCACCCAUGUAAGGACCGGGCCCGCAUCAG [theeternabot_exclusion_MS2_Trp_B_32]", "Category": "label 0"}
{"Sequence Code": "GACCGAUUAUAGCACGAUUGUCUUGUGGAAGGAGCGCAGAGGGCUGCAGGUAGGUCGCCACAUGAGGAUCACCCAUGUCAGGAUA [Raanti]", "Category": "label 1"}
{"Sequence Code": "GUUGGAUACUCGGCCGCCACUGAGAGAGUCAUGUGAACAUGAGGAUCACCCAUGUAAUAUAUAUACAGGACCGGGAGUGUUGUAA [4.I]", "Category": "label 1"}
{"Sequence Code": "AUACAUGAGGAUCACCCAUGUCACACAGAAGGAGCGGCUGUAGAGCCAGGUAGGUCGCUGUACUCAAAAUACUUCAUACUCAUGU [JR_Nu_ExcArginiA_Sub033]", "Category": "label 1"}
{"Sequence Code": "ACAUGAGGAUCACCCAUGUUAAACAGGGUGCGAGGACCGGUACGGCCGCCACUCGGACAUUAUUACGAGUGAAUGGUAACGAUGU [#13 Exclusion Tryptophan A]", "Category": "label 0"}
{"Sequence Code": "CCUAUCCAGUCGGCCGCCACUGACCAUUUGGAACAGUGGGUGAAUACAUGAGGAUCACCCAUGUACAGGACCGGGACUGUAUAGG [Ex Tryptophan B 21]", "Category": "label 0"}
{"Sequence Code": "AACUUCGCAUAGGAAAACUAUGUGAAGAAUCGAGGACCGGUACGGCCGCCACUCGUCCUCAACAUGAGGAUCACCCAUGUAAUAA [Mat - Exclusion - Trytophan A - D4]", "Category": "label 0"}
{"Sequence Code": "UGGGUACCGACGGCCGCCACUGACUAUAGACAUGAGGAUCACCCAUGUAGAGAUCCUAGACUACCCAGGACCGGGUCUGGUGCUA [Exclusion Tryptophane B GF6]", "Category": "label 1"}
{"Sequence Code": "ACAUGAGGAUCACCCAUGUGUGUAAGUUCUCGAGGACCGGUACGGCCGCCACUCGAACGAGUGUAACGUUAUACUUAGUAUAAUG [SS Trp A s4]", "Category": "label 0"}
{"Sequence Code": "AAAAUCCUACCUGAGGAUCACCCAGGUGAAGGAGCGCCCGAAAGGGCAGGUAGGUCGCACCUGAGGAUCACCCUGGUACCUAAAA [ArgAX 27 #DoubleMs2 #OpenEnded #AlternativeMS2]", "Category": "label 1"}
{"Sequence Code": "CAAUCAAUCAAUCAAUCAAUCAACCAUGAAGGAGCGUGGGAAACCACAGGUAGGUCGCAUGGAAAACAUGAGGAUCACCCAUGUA [Casablanca]", "Category": "label 1"}
{"Sequence Code": "AGAGUUAGACAAAAGUCUAGCUCACCAGAAGGAGCGUCCGAAAGGACAGGUAGGUCGCUGGUACGUGAGGAUCACCCACGUUCCU [ArgAS 18 #OpenEnded #AlternativeMS2]", "Category": "label 0"}
{"Sequence Code": "AAAUGUACGUCGGCCGCCACUGCGCUGAAGACAGUCACAUGAGGAUCACCCAUGUACGACAAGGGUAGGACCGGGAUGUGAGGGU [Rate]", "Category": "label 1"}
{"Sequence Code": "CGUCGAGACUGAAGGAGCGAGAUAACAACAUUGGGUCUCAACAUGAGGAUCACCCAUGUAUCUCAGGUAGGUCGCGGUGUCACCG [Exclusion Arginine B GF20]", "Category": "label 1"}
{"Sequence Code": "CUGACAUGAGGAUCACCCAUGUACACUGAAGGAGCGUCGAGAAUGACAGGUAGGUCGCAGAAUAAUAAUGGUGAUGUUUAGGUAA [Exclusion Arginine A GF 2]", "Category": "label 0"}
